measuredOn: human CCR2 (Homo sapiens, UniProt P41597)
Construct: expressed in transfected cells; host or cells: Ba/F3 cells (membrane preparation)
Sequence (P41597 whole entry): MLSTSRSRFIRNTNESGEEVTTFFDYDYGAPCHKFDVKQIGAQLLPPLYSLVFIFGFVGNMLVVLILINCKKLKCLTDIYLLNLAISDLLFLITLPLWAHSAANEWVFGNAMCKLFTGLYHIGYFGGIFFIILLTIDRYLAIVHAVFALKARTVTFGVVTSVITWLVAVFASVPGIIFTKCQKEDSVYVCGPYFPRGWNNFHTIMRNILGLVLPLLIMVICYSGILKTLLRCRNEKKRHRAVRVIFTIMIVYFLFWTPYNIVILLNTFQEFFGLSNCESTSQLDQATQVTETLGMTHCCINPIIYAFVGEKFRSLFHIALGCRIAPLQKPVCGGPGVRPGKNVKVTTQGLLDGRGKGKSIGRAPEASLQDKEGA
assayDetails: CCR2 Membrane Binding Assay (SPA radio-ligand binding, 125I-rhMCP-1)
assayContext: membranes from Ba/F3 cells transfected with human CCR2; 0.03 nM 125I-rhMCP-1; 4 h room temperature
Entries and their IC50

compound: O=C(CNC(=O)[C@H]1[C@@H]2CN([C@H]3CC[C@@H](c4ccc(F)cc4)CC3)C[C@@H]21)Nc1cccc(C(F)(F)F)c1
IC50: 6.1 nM

Q: Give the measured IC50 of Cn1ncc2cc([C@H]3CC[C@@H](N4C[C@@H]5[C@H](C4)[C@H]5C(=O)NCC(=O)Nc4cccc(C(F)(F)F)c4)CC3)ccc21 .
Result: 6.7 nM

Q: Same for O=C(CNC(=O)[C@H]1[C@@H]2CN(C3CCC(O)(c4nccs4)CC3)C[C@@H]21)Nc1cccc(C(F)(F)F)c1 (stereo partly drawn)
Result: 3.9 nM
